biological target: Protein smoothened (Homo sapiens, UniProt Q99835); assay: Inhibition of human recombinant SMO expressed in mouse C3H10T1/2 cells assessed as inhibition of association of BODIPY-cyclopamine; format: cell-based, C3H 10T1/2
Sequence (Q99835 whole entry): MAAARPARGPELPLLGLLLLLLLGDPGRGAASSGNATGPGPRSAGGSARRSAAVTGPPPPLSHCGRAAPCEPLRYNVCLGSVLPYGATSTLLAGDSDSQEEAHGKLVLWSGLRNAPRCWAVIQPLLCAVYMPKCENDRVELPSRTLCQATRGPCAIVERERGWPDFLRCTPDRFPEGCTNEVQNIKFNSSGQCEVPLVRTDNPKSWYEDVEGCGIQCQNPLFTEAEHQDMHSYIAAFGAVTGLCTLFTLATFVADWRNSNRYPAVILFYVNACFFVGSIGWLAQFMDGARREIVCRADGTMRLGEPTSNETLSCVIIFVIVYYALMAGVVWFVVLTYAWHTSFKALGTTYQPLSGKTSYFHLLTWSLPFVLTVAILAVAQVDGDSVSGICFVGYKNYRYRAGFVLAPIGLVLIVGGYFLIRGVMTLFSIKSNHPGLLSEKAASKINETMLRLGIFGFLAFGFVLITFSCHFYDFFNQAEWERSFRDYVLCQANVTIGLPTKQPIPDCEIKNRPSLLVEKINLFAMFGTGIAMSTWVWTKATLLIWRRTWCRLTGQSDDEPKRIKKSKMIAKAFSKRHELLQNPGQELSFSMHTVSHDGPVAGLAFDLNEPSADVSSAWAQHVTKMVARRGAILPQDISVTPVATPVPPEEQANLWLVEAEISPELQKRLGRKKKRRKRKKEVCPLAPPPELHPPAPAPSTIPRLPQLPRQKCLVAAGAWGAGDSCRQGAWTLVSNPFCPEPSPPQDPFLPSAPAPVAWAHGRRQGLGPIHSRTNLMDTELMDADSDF
measurement-kind: pIC50
Notebook: values listed as pIC50 are -log10 of the concentration (mol/L).

Query: Could you tell me which pIC50 is on file for CC1=C2C[C@H]3[C@@H](CC[C@@H]4C[C@H](NS(C)(=O)=O)CC[C@@]43C)[C@@H]2CC[C@@]2(C1)O[C@@H]1C[C@H](C)CN[C@H]1[C@H]2C ?
Response: 8.85

---

test: Elimination half life in Sprague-Dawley rat at 1 mg/kg, iv; assay type: ADME, organism-based; parameters: dose 1 mg/kg, route intravenous; conditions: in vivo, read-out: beta t1/2 (converted)
measurement-kind: half-life (h)
Answer format: numeric, h implied, no suffix.

Solved cases (2 shown):
1. CC1=C2C[C@H]3[C@@H](CCC4=CC(=O)CC[C@@]43C)[C@@H]2CC[C@@]2(C1)O[C@@H]1C[C@H](C)CN[C@H]1[C@H]2C 1.7
2. CC1=C2C[C@H]3[C@@H](CC[C@@H]4CNC(=O)CC[C@@]43C)[C@@H]2CC[C@@]2(C1)O[C@@H]1C[C@H](C)CN[C@H]1[C@H]2C 5.4

Query: Could you tell me which half-life is on file for CC1=C2C[C@H]3[C@@H](CC[C@@H]4Cc5[nH]ncc5C[C@@]43C)[C@@H]2CC[C@@]2(C1)O[C@@H]1C[C@H](C)CN[C@H]1[C@H]2C ?
Response: 1.2

---

The following compounds are shown together with reported clearance values.
assay: Plasma clearance in Sprague-Dawley rat at 1 mg/kg, iv; type: ADME, organism-based; set-up: dose 1 mg/kg, route intravenous
Answer format: numeric, mL/min/kg implied, no suffix.

Query: Could you tell me which clearance is on file for CC1=C2C[C@H]3[C@@H](CCC4=CC(=O)CC[C@@]43C)[C@@H]2CC[C@@]2(C1)O[C@@H]1C[C@H](C)CN[C@H]1[C@H]2C ?
Response: 207

---

The following molecules are shown together with reported Vd values.
assay: Volume of distribution in CD1 mouse at 1 mg/kg, iv; assay type: ADME, organism-based; design: dose 1 mg/kg, route intravenous; conditions: in vivo
Answer format: numeric, L/kg implied, no suffix.

Solved cases (3 shown):
1. CC1=C2C[C@H]3[C@@H](CC[C@@H]4CNC(=O)CC[C@@]43C)[C@@H]2CC[C@@]2(C1)O[C@@H]1C[C@H](C)CN[C@H]1[C@H]2C 2
2. CC1=C2C[C@H]3[C@@H](CC[C@@H]4C[C@H](NS(C)(=O)=O)CC[C@@]43C)[C@@H]2CC[C@@]2(C1)O[C@@H]1C[C@H](C)CN[C@H]1[C@H]2C 11
3. CC1=C2C[C@H]3[C@@H](CC[C@@H]4Cc5[nH]ncc5C[C@@]43C)[C@@H]2CC[C@@]2(C1)O[C@@H]1C[C@H](C)CN[C@H]1[C@H]2C 9

Now for another entry.
Query: Could you tell me which Vd is on file for CC1=C2C[C@H]3[C@@H](CCC4=CC(=O)CC[C@@]43C)[C@@H]2CC[C@@]2(C1)O[C@@H]1C[C@H](C)CN[C@H]1[C@H]2C ?
Response: 18

---

experiment: Plasma clearance in cynomolgus monkey at 1 mg/kg, iv; type: ADME, organism-based, Macaca fascicularis; set-up: dose 1 mg/kg, route intravenous
The following molecules are shown together with reported clearance values.
Answer format: numeric, mL/min/kg implied, no suffix.

Solved cases (3 shown):
1) CC1=C2C[C@H]3[C@@H](CC[C@@H]4CNC(=O)CC[C@@]43C)[C@@H]2CC[C@@]2(C1)O[C@@H]1C[C@H](C)CN[C@H]1[C@H]2C 13.3
2) CC1=C2C[C@H]3[C@@H](CCC4=CC(=O)CC[C@@]43C)[C@@H]2CC[C@@]2(C1)O[C@@H]1C[C@H](C)CN[C@H]1[C@H]2C 103
3) CC1=C2C[C@H]3[C@@H](CC[C@@H]4C[C@H](NS(C)(=O)=O)CC[C@@]43C)[C@@H]2CC[C@@]2(C1)O[C@@H]1C[C@H](C)CN[C@H]1[C@H]2C 15

Now for another entry.
Query: Could you tell me which clearance is on file for CC1=C2C[C@H]3[C@@H](CC[C@@H]4Cc5[nH]ncc5C[C@@]43C)[C@@H]2CC[C@@]2(C1)O[C@@H]1C[C@H](C)CN[C@H]1[C@H]2C ?
Response: 30

---

The following compounds are shown together with reported clearance values.
experiment: Plasma clearance in CD1 mouse at 1 mg/kg, iv; format: ADME, organism-based; set-up: dose 1 mg/kg, route intravenous
Answer format: numeric, mL/min/kg implied, no suffix.

Solved cases (3 shown):
1. CC1=C2C[C@H]3[C@@H](CC[C@@H]4C[C@H](NS(C)(=O)=O)CC[C@@]43C)[C@@H]2CC[C@@]2(C1)O[C@@H]1C[C@H](C)CN[C@H]1[C@H]2C 12.3
2. CC1=C2C[C@H]3[C@@H](CCC4=CC(=O)CC[C@@]43C)[C@@H]2CC[C@@]2(C1)O[C@@H]1C[C@H](C)CN[C@H]1[C@H]2C 60
3. CC1=C2C[C@H]3[C@@H](CC[C@@H]4Cc5[nH]ncc5C[C@@]43C)[C@@H]2CC[C@@]2(C1)O[C@@H]1C[C@H](C)CN[C@H]1[C@H]2C 33.3

Now for another entry.
Query: Could you tell me which clearance is on file for CC1=C2C[C@H]3[C@@H](CC[C@@H]4CNC(=O)CC[C@@]43C)[C@@H]2CC[C@@]2(C1)O[C@@H]1C[C@H](C)CN[C@H]1[C@H]2C ?
Response: 8.33

---

assay: Oral bioavailability in cynomolgus monkey at 4 mg/kg; format: ADME, organism-based, Macaca fascicularis; conditions: in vivo
The following compounds are shown together with reported bioavailability values.
Put down the number, then write its unit next to it.

Solved cases (3 shown):
1. CC1=C2C[C@H]3[C@@H](CCC4=CC(=O)CC[C@@]43C)[C@@H]2CC[C@@]2(C1)O[C@@H]1C[C@H](C)CN[C@H]1[C@H]2C 69%
2. CC1=C2C[C@H]3[C@@H](CC[C@@H]4CNC(=O)CC[C@@]43C)[C@@H]2CC[C@@]2(C1)O[C@@H]1C[C@H](C)CN[C@H]1[C@H]2C 100%
3. CC1=C2C[C@H]3[C@@H](CC[C@@H]4Cc5[nH]ncc5C[C@@]43C)[C@@H]2CC[C@@]2(C1)O[C@@H]1C[C@H](C)CN[C@H]1[C@H]2C 84%

Now for another entry.
Query: Could you tell me which bioavailability is on file for CC1=C2C[C@H]3[C@@H](CC[C@@H]4C[C@H](NS(C)(=O)=O)CC[C@@]43C)[C@@H]2CC[C@@]2(C1)O[C@@H]1C[C@H](C)CN[C@H]1[C@H]2C ?
Response: 74%

---

test: Elimination half life in CD1 mouse at 1 mg/kg, iv; assay type: ADME, organism-based; set-up: dose 1 mg/kg, route intravenous; conditions: in vivo, read-out: beta t1/2 (converted)
measurement-kind: half-life (h)
Answer format: numeric, h implied, no suffix.

Solved cases (3 shown):
1) CC1=C2C[C@H]3[C@@H](CC[C@@H]4C[C@H](NS(C)(=O)=O)CC[C@@]43C)[C@@H]2CC[C@@]2(C1)O[C@@H]1C[C@H](C)CN[C@H]1[C@H]2C 10.5
2) CC1=C2C[C@H]3[C@@H](CCC4=CC(=O)CC[C@@]43C)[C@@H]2CC[C@@]2(C1)O[C@@H]1C[C@H](C)CN[C@H]1[C@H]2C 3.5
3) CC1=C2C[C@H]3[C@@H](CC[C@@H]4Cc5[nH]ncc5C[C@@]43C)[C@@H]2CC[C@@]2(C1)O[C@@H]1C[C@H](C)CN[C@H]1[C@H]2C 3

Now for another entry.
Query: Could you tell me which half-life is on file for CC1=C2C[C@H]3[C@@H](CC[C@@H]4CNC(=O)CC[C@@]43C)[C@@H]2CC[C@@]2(C1)O[C@@H]1C[C@H](C)CN[C@H]1[C@H]2C ?
Response: 3

---

The following molecules are shown together with reported bioavailability values.
experiment: Oral bioavailability in Beagle dog at 4 mg/kg; format: ADME, organism-based, Canis lupus familiaris; conditions: in vivo
Answer format: numeric, % implied, no suffix.

1) CC1=C2C[C@H]3[C@@H](CC[C@@H]4C[C@H](NS(C)(=O)=O)CC[C@@]43C)[C@@H]2CC[C@@]2(C1)O[C@@H]1C[C@H](C)CN[C@H]1[C@H]2C 50
2) CC1=C2C[C@H]3[C@@H](CC[C@@H]4Cc5[nH]ncc5C[C@@]43C)[C@@H]2CC[C@@]2(C1)O[C@@H]1C[C@H](C)CN[C@H]1[C@H]2C 73
3) CC1=C2C[C@H]3[C@@H](CCC4=CC(=O)CC[C@@]43C)[C@@H]2CC[C@@]2(C1)O[C@@H]1C[C@H](C)CN[C@H]1[C@H]2C 7

Query: Could you tell me which bioavailability is on file for CC1=C2C[C@H]3[C@@H](CC[C@@H]4CNC(=O)CC[C@@]43C)[C@@H]2CC[C@@]2(C1)O[C@@H]1C[C@H](C)CN[C@H]1[C@H]2C ?
Response: 97
